molecular target: human PDE2A1 (Homo sapiens (Human)); assay: PDE selectivity IMAP FP assay, human PDE2A1; assay type: biochemical; conditions: Human PDE2; Lab B; read-out: Human PDE2 Ki (nM) Lab B
property_label: Ki (nM)

* CC(c1ccc(C(C)(F)F)cc1F)n1nc(CF)c2c(=O)[nH]c(N(C)C)nc21 (single isomer, unassigned) [Example 209] | 0.077

I = CC(C)C(c1ccc(C(C)(F)F)cc1)n1nc(CO)c2c(=O)[nH]c(N(C)C)nc21 (single isomer, unassigned) [Example 139]
II = O=c1[nH]c(O)nc2c1c(CC(F)(F)F)nn2C(c1ccc(OC(F)(F)F)c(F)c1)C1CC1 (single isomer, unassigned) [Example 252]
I'd appreciate it if you could identify which of I and II has the greater Ki. Write down the label of the entry you select. II
(II: 73 nM, I: 0.064 nM)

====

target: UniProt:O00408; test: PDE selectivity IMAP FP assay, human PDE2A1; format: biochemical; settings: Human PDE2; Lab B; read-out: Human PDE2 Ki (nM) Lab B
property_label: Ki (nM)

Previously resolved entries follow.
- CCC(c1ccc(C(F)(F)F)c(F)c1)n1nc(CF)c2c(=O)[nH]c(N(C)C)nc21 (single isomer, unassigned) [Example 223]: 1.8
- CCC(c1ccc(CC(F)(F)F)c(F)c1)n1nc(CO)c2c(=O)[nH]c(N(C)C)nc21 (single isomer, unassigned) [Example 97]: 0.09
- CC(c1ccc(C(F)(F)F)c(F)c1)n1nc(CF)c2c(=O)[nH]c(N(C)C)nc21 (single isomer, unassigned) [Example 168]: 5.3
- CN(C)c1nc2c(c(CF)nn2C(c2ccc(C(C)(F)F)cc2)C2CC2)c(=O)[nH]1 (single isomer, unassigned) [Example 212]: 0.61
- CC(c1ccc(OC(F)(F)F)c(F)c1)n1nc(CO)c2c(=O)[nH]c(N(C)C)nc21 (single isomer, unassigned) [Example 85]: 0.24
- CC(C)C(c1ccc(C(C)(F)F)cc1)n1nc(CO)c2c(=O)[nH]c(N(C)C)nc21 (single isomer, unassigned) [Example 138]: 0.19
- CC(c1ccc(C(C)(F)F)cc1F)n1nc(CO)c2c(=O)[nH]c(N(C)C)nc21 (single isomer, unassigned) [Example 108]: 0.23
- CC(c1ccc(C(C)(F)F)cc1)n1nc(CF)c2c(=O)[nH]c(N(C)C)nc21 (single isomer, unassigned) [Example 195]: 0.17

I = CC(c1ccc(OC(F)(F)F)c(F)c1)n1nc(CF)c2c(=O)[nH]c(N(C)C)nc21 (single isomer, unassigned) [Example 167]
II = CC(c1ccc(C(C)(F)F)cc1)n1nc(C(F)(F)F)c2c(=O)[nH]c(O)nc21 (single isomer, unassigned) [Example 317]
III = O=c1[nH]c(O)nc2c1c(CF)nn2C1(c2ccc(C(F)(F)F)cc2)CCC1 [Example 46]
IV = CN(C)c1nc2c(c(CO)nn2C(c2ccc(CC(F)(F)F)cc2)C2CC2)c(=O)[nH]1 (single isomer, unassigned) [Example 86]
V = CC(c1ccc(OC(F)(F)F)cc1)n1nc(CO)c2c(=O)[nH]c(N(C)C)nc21 (single isomer, unassigned) [Example 148]
Sort (5 molecules) by Ki: min first. Output spec: labels arranged per the requested ranking. I, IV, V, III, II
(I: 0.2 nM, IV: 0.57 nM, V: 2.6 nM, III: 9.2 nM, II: 326 nM)

====

molecular target: human PDE2A1 (Homo sapiens (Human)); experiment: PDE selectivity IMAP FP assay, human PDE2A1; type: biochemical; conditions: Human PDE2; Lab B; read-out: Human PDE2 Ki (nM) Lab B
property_label: Ki (nM)

Previously resolved entries follow.
* CC(c1ccc(OC(F)(F)F)c(F)c1)n1nc(CC(F)(F)F)c2c(=O)[nH]c(O)nc21 (racemic) | 9.6
* CC(c1ccc(C(F)F)cc1)n1nc(CO)c2c(=O)[nH]c(N(C)C)nc21 (single isomer, unassigned) [Example 82] | 35
* CCC(c1ccc(C(F)F)cc1)n1nc(CO)c2c(=O)[nH]c(N(C)C)nc21 (single isomer, unassigned) [Example 92] | 8.4
* CC(c1ccc(OC(F)F)c(F)c1)n1nc(C(F)(F)F)c2c(=O)[nH]c(O)nc21 (single isomer, unassigned) [Example 323] | 304
* CC(C)C(c1ccc(C(F)(F)F)cc1)n1nc(C(F)(F)F)c2c(=O)[nH]c(O)nc21 (single isomer, unassigned) [Example 334] | 2.3

a = C[C@@H](c1ccc(C(F)(F)F)cc1)n1nc(CO)c2c(=O)[nH]c(N3CC(F)C3)nc21
b = CN(C)c1nc2c(c(CO)nn2C(c2ccc(C(C)(F)F)c(F)c2)C2CC2)c(=O)[nH]1 (single isomer, unassigned) [Example 351]
c = CCC(c1ccc(C(F)(F)F)cc1)n1nc(CO)c2c(=O)[nH]c(N(C)C)nc21 (single isomer, unassigned) [Example 72]
Sort (3 molecules) by Ki: min first. Output spec: labels arranged per the requested ranking. b, a, c

A = CC(c1ccc(OC(F)F)cc1)n1nc(C(F)(F)F)c2c(=O)[nH]c(O)nc21 (single isomer, unassigned) [Example 315]
B = CC(c1ccc(S(F)(F)(F)(F)F)cc1)n1nc(CC(F)(F)F)c2c(=O)[nH]c(O)nc21 (racemic)
Of A and B , which carries the smaller reported Ki figure? Write down the label of the entry you select. B

====

target: human PDE2A1 (Homo sapiens (Human), UniProt O00408); test: PDE selectivity IMAP FP assay, human PDE2A1; type: biochemical; settings: Human PDE2; Lab B; read-out: Human PDE2 Ki (nM) Lab B
Sequence (O00408 other isoform, or with tags, fused parts or gaps): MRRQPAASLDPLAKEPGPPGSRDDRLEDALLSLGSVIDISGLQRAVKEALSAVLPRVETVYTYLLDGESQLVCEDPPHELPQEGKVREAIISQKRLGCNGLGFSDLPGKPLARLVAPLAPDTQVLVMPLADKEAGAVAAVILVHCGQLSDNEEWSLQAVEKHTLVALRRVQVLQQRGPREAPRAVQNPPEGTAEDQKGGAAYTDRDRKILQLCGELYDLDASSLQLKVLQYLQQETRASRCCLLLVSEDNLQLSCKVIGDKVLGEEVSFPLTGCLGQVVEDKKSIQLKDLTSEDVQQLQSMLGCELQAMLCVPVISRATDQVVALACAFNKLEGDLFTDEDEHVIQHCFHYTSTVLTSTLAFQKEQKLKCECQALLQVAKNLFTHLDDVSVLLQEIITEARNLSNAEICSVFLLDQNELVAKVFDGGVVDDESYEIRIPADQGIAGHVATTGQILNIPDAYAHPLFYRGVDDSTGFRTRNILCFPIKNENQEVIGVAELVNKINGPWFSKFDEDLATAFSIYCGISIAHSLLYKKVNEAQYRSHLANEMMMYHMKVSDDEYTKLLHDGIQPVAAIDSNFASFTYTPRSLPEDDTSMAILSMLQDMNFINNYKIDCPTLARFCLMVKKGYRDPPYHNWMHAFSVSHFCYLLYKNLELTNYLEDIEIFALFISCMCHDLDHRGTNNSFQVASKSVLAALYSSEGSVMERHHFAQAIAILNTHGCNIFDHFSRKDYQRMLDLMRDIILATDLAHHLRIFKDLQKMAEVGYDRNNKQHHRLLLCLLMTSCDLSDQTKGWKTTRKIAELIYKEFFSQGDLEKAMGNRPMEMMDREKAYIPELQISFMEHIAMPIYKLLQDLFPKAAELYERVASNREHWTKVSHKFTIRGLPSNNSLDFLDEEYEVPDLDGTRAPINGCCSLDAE
property_label: Ki (nM)

• CC(c1ccc(C(F)(F)F)c(F)c1)n1nc(C(F)(F)F)c2c(=O)[nH]c(O)nc21 (single isomer, unassigned) [Example 314] = 106

A = CC(c1ccc(C(C)(C)C)cc1)n1nc(CF)c2c(=O)[nH]c(N(C)C)nc21 (single isomer, unassigned) [Example 171]
B = CC(c1ccc(C2CC2)cc1)n1nc(C(F)F)c2c(=O)[nH]c(O)nc21 (single isomer, unassigned) [Example 275]
I'd appreciate it if you could identify which of A and B has the greater Ki. Write down the label of the entry you select. B

====

target: Rhesus PDE2A3 (Macaca mulatta); test: PDE2 fluorescence polarization (IMAP FP) assay, rhesus PDE2A3; format: biochemical, rhesus macaque; settings: Lab B, read-out: Rhesus PDE2 Ki (nM) Lab B
Sequence (B3VTJ2 1-941): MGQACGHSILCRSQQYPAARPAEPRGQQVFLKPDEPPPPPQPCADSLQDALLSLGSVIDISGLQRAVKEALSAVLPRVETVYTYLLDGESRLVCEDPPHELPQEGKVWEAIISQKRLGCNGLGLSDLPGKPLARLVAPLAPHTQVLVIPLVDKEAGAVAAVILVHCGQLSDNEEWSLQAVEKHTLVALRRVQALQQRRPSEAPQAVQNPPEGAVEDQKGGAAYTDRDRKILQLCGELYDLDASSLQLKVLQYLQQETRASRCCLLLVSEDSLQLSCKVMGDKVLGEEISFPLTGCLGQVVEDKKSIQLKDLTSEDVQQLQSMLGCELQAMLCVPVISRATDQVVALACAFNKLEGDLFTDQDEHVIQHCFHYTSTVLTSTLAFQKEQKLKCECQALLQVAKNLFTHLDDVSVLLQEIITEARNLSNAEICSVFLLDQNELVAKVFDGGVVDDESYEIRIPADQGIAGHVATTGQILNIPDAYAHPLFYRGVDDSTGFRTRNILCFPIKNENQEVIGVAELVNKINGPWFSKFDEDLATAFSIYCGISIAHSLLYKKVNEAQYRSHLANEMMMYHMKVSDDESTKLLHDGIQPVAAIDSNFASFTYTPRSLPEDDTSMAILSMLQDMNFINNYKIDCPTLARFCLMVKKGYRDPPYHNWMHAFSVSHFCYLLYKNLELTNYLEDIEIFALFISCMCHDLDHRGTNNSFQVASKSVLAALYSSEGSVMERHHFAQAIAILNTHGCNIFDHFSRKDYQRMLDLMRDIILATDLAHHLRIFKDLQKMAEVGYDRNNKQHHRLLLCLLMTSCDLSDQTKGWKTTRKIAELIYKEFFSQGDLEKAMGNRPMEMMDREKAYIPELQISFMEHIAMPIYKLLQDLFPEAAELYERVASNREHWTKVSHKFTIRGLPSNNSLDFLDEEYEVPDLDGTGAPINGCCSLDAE
property_label: Ki (nM)

Previously resolved entries follow.
* CN(C)c1nc2c(c(CF)nn2C(c2ccc(CC(F)(F)F)cc2)C2CC2)c(=O)[nH]1 (single isomer, unassigned) [Example 193] | 0.41
* CC(c1ccc(S(F)(F)(F)(F)F)cc1)n1nc(CO)c2c(=O)[nH]c(O)nc21 (single isomer, unassigned) | 27
* CCC(c1ccc(C(F)(F)F)cc1)n1nc(CF)c2c(=O)[nH]c(N(C)C)nc21 (single isomer, unassigned) | 0.096
* CC(C)C(c1ccc(OC(F)(F)F)cc1)n1nc(CC(F)(F)F)c2c(=O)[nH]c(O)nc21 (single isomer, unassigned) [Example 233] | 132
* O=c1[nH]c(O)nc2c1c(CO)nn2C(CC(F)(F)F)c1ccc(C(F)(F)F)cc1 (single isomer, unassigned) [Example 22] | 253
* CC(C)C(c1ccc(C(F)(F)F)cc1)n1nc(CC(F)(F)F)c2c(=O)[nH]c(O)nc21 (single isomer, unassigned) [Example 241] | 199
* CC(C)C(c1ccc(C(F)(F)F)c(F)c1)n1nc(CO)c2c(=O)[nH]c(N(C)C)nc21 (single isomer, unassigned) [Example 142] | 0.29
* CC(c1ccc(C(F)(F)F)c(F)c1)n1nc(CC(F)(F)F)c2c(=O)[nH]c(O)nc21 (single isomer, unassigned) [Example 235] | 1.5
* CC(C)C(c1ccc(C(F)F)cc1)n1nc(CO)c2c(=O)[nH]c(N(C)C)nc21 (single isomer, unassigned) [Example 91] | 0.18
* CC(c1ccc(C(F)F)c(F)c1)n1nc(CF)c2c(=O)[nH]c(N(C)C)nc21 (single isomer, unassigned) | 0.59

P = CC(c1ccc(C(F)F)cc1)n1nc(CO)c2c(=O)[nH]c(N(C)C)nc21 (single isomer, unassigned)
Q = CCC(c1ccc(C(C)(F)F)cc1F)n1nc(CO)c2c(=O)[nH]c(N(C)C)nc21 (single isomer, unassigned)
Of P and Q , which carries the smaller reported Ki figure? Write down the label of the entry you select. Q

====

Biological target: human PDE2A1 (Homo sapiens (Human))
Assay: PDE selectivity IMAP FP assay, human PDE2A1
Format: biochemical
Settings: Human PDE2; Lab B; read-out: Human PDE2 Ki (nM) Lab B
Experimental: Selectivity for PDE2, as compared to other PDE families, was assessed using the IMAP® technology. Human PDE10A2 enzyme was prepared from cytosolic fractions of transiently transfected HEK cells. A Labcyte POD 810 (Labcyte, Sunnyvale, Calif.) was used to dispense 200 nL from each well of the titration plate to make eleven copies of the assay plate for each titration, one copy for each PDE enzyme. […]
property_label: Ki (nM)

* CC(c1ccc(OC(F)(F)F)c(Cl)c1)n1nc(C(F)(F)F)c2c(=O)[nH]c(O)nc21 (single isomer, unassigned) [Example 321] | 145
* CC(C)C(c1ccc(C(F)(F)F)cc1)n1nc(CO)c2c(=O)[nH]c(N(C)C)nc21 (single isomer, unassigned) [Example 64] | 0.29
* CN(C)c1nc2c(c(CO)nn2C(c2ccc(CC(F)(F)F)c(F)c2)C2CC2)c(=O)[nH]1 (single isomer, unassigned) [Example 95] | 0.39
* CC(c1ccc(C(C)(C)C)cc1)n1nc(CF)c2c(=O)[nH]c(N(C)C)nc21 (single isomer, unassigned) [Example 170] | 7.6
* CC(c1ccc(C(F)F)cc1)n1nc(CF)c2c(=O)[nH]c(N(C)C)nc21 (single isomer, unassigned) [Example 190] | 27

A = CC(c1ccc(OC(F)(F)F)cc1F)n1nc(C(F)(F)F)c2c(=O)[nH]c(O)nc21 (single isomer, unassigned) [Example 308]
B = CC(c1ccc(C(F)(F)F)c(Cl)c1)n1nc(C(F)(F)F)c2c(=O)[nH]c(O)nc21 (single isomer, unassigned) [Example 327]
Of A and B , which carries the smaller reported Ki figure? Write down the label of the entry you select. A

I = CCC(c1ccc(C(F)F)cc1)n1nc(CF)c2c(=O)[nH]c(N(C)C)nc21 (single isomer, unassigned) [Example 346]
II = CC(c1ccc(CC(F)F)cc1)n1nc(C(F)(F)F)c2c(=O)[nH]c(O)nc21 (single isomer, unassigned) [Example 319]
III = CC(C)C(c1ccc(C(F)(F)F)cc1F)n1nc(CF)c2c(=O)[nH]c(N(C)C)nc21 (single isomer, unassigned) [Example 201]
Descending sort on Ki required. Output spec: labels arranged per the requested ranking. II, I, III

A = CCC(c1ccc(C(F)(F)F)cc1F)n1nc(CF)c2c(=O)[nH]c(N(C)C)nc21 (single isomer, unassigned) [Example 199]
B = CC(c1ccc(OC(F)(F)F)c(F)c1)n1nc(C(F)F)c2c(=O)[nH]c(O)nc21 (single isomer, unassigned) [Example 288]
Of A and B , which carries the smaller reported Ki figure? Write down the label of the entry you select. A
(A: 1.1 nM, B: 2.4 nM)
